// provenance: paper PMC7055227

biological target: hMeCP2 MBD (Homo sapiens, UniProt P51608); test: EMSA; poly(dA)-poly(dT) 50 ng/uL; EMSA: 20 mM HEPES pH 7.3, 30 mM KCl, 1 mM EDTA, 10 mM (NH4)2SO4, 1 mM DTT, 0.2% Tween 20, 50 ng/uL poly(dA)-poly(dT), protein diluted in dialysis buffer with 0.1 mg/mL BSA; 2 nM duplex; 20 min at room temperature; gel at 4 C; conditions: protein: recombinant; tags: N-term SpA(Z)-Factor Xa-TEV, C-term 8xHis; label: 5' 6-FAM on strand 1; blunt
Sequence (P51608 90-181): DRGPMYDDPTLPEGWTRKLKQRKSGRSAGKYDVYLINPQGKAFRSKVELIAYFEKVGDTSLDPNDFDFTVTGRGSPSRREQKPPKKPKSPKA
Assay Endpoint: Kd (µM)
Expressed in µM, but write only the number.

q: # lookup: Kd of probe p03 (dsDNA, cytosine states of p03 not given in the material (perhaps C/C)) DNA 1: AAAAAAAAAAACGAAAAAAAAAAA DNA 2: TTTTTTTTTTTCGTTTTTTTTTTT
a: 1.08
